Taken from patent US20230272055A1.

- Target entity: T1, Recombinant MBP-mutCALR Type 1 fusion protein (human)
- T1 construct: custom made at Cepter; also called recombinant mutCALR protein
- Method: SPR, IgG captured, 1:1 fit, Exp. 2
Readings of koff for the listed binders
Write it as a number; the unit s⁻¹ goes unstated.

Example entries begin here.
anti-mutCALR antibody clone 79 (antibody, human IgG1, lambda, N297A, V domains shown, human IgG1 N297A variant of clone 6) VH: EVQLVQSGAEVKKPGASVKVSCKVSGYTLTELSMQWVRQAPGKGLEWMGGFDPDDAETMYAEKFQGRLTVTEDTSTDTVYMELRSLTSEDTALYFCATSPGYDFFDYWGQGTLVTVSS VL: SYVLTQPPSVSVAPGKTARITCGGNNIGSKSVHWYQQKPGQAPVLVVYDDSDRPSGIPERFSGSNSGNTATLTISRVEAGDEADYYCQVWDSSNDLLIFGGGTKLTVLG = 0.00631
anti-mutCALR antibody clone 63 (antibody, human IgG1, lambda, N297A, V domains shown, human IgG1 N297A variant of clone 6) VH: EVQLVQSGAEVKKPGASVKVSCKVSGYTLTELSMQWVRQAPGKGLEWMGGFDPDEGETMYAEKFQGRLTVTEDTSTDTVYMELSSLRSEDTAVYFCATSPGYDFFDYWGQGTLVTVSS VL: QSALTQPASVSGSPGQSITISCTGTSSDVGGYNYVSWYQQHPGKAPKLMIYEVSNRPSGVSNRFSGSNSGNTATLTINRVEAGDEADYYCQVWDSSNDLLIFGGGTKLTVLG = 0.000691

I am curious: what koff value has been reported for anti-mutCALR antibody clone 70 (antibody, human IgG1, lambda, N297A, V domains shown, human IgG1 N297A variant of clone 6) VH: EVQLVQSGAEVKKPGASVKVSCKVSGYTLTELSMQWVRQAPGKGLEWMGGFDPDDGETMYAEKFQGRLTVTEDTSTDTVYMELSSLRSEDTAVYFCATSPGYDFFDYWGQGTLVTVSS VL: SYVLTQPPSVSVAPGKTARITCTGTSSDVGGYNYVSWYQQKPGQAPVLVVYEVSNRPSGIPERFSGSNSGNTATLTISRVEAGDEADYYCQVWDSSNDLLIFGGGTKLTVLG ? 0.000953
